testedOn: human VR1 receptors (Homo sapiens, UniProt Q8NER1)
Sequence (Q8NER1 whole entry): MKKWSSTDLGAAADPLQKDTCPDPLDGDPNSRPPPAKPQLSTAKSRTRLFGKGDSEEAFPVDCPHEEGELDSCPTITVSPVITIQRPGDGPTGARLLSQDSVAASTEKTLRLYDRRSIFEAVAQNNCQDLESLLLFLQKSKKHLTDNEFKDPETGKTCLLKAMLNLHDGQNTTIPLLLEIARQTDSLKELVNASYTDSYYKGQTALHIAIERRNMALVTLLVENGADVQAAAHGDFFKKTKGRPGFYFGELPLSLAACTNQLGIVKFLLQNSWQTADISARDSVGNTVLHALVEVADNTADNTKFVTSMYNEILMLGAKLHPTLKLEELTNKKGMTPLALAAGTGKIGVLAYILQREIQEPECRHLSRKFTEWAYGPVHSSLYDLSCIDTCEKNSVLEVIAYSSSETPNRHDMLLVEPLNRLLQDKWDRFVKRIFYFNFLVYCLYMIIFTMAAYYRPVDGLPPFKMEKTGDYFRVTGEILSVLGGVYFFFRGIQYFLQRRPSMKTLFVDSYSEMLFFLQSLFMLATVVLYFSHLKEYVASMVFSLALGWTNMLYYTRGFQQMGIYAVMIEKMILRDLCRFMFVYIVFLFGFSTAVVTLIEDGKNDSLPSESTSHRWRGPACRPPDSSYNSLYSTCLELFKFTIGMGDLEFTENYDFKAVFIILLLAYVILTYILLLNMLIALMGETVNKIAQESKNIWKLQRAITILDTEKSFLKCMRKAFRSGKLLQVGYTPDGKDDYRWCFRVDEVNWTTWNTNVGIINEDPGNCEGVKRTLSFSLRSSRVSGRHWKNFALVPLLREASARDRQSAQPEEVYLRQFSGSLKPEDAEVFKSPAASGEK
testDetails: Human VR1 antagonist assay, Ca2+ imaging, capsaicin stimulation
cond: human VR1 expressing cells; concentration required to reduce capsaicin-evoked Ca2+ influx by 50%; capsaicin 300 nM; read-out: hVR1 IC50
Assign pIC50 to each entry below.
Value format note: pIC50 is -log10 of concentration (mol/L); just state the number.

INPUT: // Input: Cc1cccnc1C(=O)CNC(=O)C1C(c2ccc(C(C)(C)C)cc2)C1(F)F (stereo not drawn) [Example 9] . Output its pIC50 only.
OUTPUT: 6.51

INPUT: Please report the measured pIC50 for Cn1ccnc1C(=O)CNC(=O)C1CC1(C)c1ccc(C(C)(C)C(F)(F)F)cc1 (stereo not drawn) [Example 11]
OUTPUT: 6.35

INPUT: Output measured pIC50 for this item: COc1ccc(C)c(C(=O)CNC(=O)C2CC2c2ccc(C(C)(C)C)cc2)c1 (stereo not drawn) [Example 2]
OUTPUT: 6.00

INPUT: Answer with the recorded pIC50 of Cc1cccnc1C(=O)CNC(=O)C1CC1c1ccc(C(C)(C)C(F)(F)F)cc1 (stereo not drawn) [Example 5] only.
OUTPUT: 6.95

INPUT: Give the reported value of pIC50 for this record: Cc1cccnc1C(=O)CNC(=O)C1CC1c1ccc(C(C)(C)C)c(Cl)c1 (stereo not drawn) [Example 7]
OUTPUT: 7.04

INPUT: # return recorded pIC50 for entry CC(C)(C)c1ccc(C2CC2C(=O)NCC(=O)c2ncccc2C(F)(F)F)cc1F (stereo not drawn) [Example 8]
OUTPUT: 6.99

INPUT: Give recorded pIC50. Cc1ccc(O)cc1C(=O)CNC(=O)C1CC1c1ccc(C(C)(C)C)cc1 (stereo not drawn) [Example 3]
OUTPUT: 6.15

INPUT: Consider the compound Cc1cccnc1C(=O)CNC(=O)C1CC1c1ccc(C(C)(C)C)cc1 (stereo not drawn) [Example 1] and give its recorded pIC50.
OUTPUT: 6.99

INPUT: Identify pIC50 associated with the compound Cn1ccnc1C(=O)CNC(=O)C1CC1c1ccc(C(C)(C)C)c(F)c1 (stereo not drawn) [Example 10]
OUTPUT: 6.62
